Listing of entries alongside the reported pKd.
# experimental.system: T1, mIL22RA1-Fc fusion protein (mouse, UniProt Q80XZ4 16-230, limits assumed)
# T1 construct: also called mouse IL-22Ra 1; IL-22Rα-1; not shown: Fc part
# T1 sequence (looked up): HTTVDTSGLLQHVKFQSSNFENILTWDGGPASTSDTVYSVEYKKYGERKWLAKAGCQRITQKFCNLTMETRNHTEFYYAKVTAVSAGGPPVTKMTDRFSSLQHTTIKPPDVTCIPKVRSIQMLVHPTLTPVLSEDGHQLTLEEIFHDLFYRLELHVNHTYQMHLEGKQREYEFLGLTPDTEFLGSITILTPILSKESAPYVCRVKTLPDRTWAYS
# test.description: BLI (Octet RED96); mIL22RA1-Fc captured on AHC biosensor, fusion protein in solution at 400 nM, global fit
pKd is a log-scale quantity: -log10 of the concentration expressed in molar.

[[record]]
binder = "mIL-22-anti-HSA A4 (other, Single-chain fusion, expressed in ExpiCHO cells) LPVNTRCKLEVSNFQQPYIVNRTFMLAKEASLADNNTDVRLIGEKLFRGVSAKDQCYLMKQVLNFTLEDVLLPQSDRFQPYMQEVVPFLTKLSNQLSSCHISGDDQNIQKNVRRLKETVKKLGESGEIKAIGELDLLFMSLRNACVSGGGGSGGGGSGGGGSQVQLVESGGGVVQPGGSLRLSCAASGFAFRGFGMSWVRQAPGKGLEWVSSINNGGSDTYYADSVKGRFTISRDNSKNTLYLQMNSLRAEDTAVYYCAIGGPGASPSGQGTQVTVSS"
experimental_result = 7.17

[[record]]
binder = "mIL-22-anti-HSA A2 (other, Single-chain fusion, expressed in ExpiCHO cells; also called fusion protein A2) LPVNTRCKLEVSNFQQPYIVNRTFMLAKEASLADNNTDVRLIGEKLFRGVSAKDQCYLMKQVLNFTLEDVLLPQSDRFQPYMQEVVPFLTKLSNQLSSCHISGDDQNIQKNVRRLKETVKKLGESGEIKAIGELDLLFMSLRNACVSGGGGSGGGGSGGGGSEVQLVESGGGLVQPGGSLRLSCAASGSTWSINTLAWYRQAPGKQRDLVARISSGGSTYYADSVKGRFTISRDNSKNTLYLQMNSLRAEDTAVYYCYAQSTWYPPSWGQGTLVTVSS"
experimental_result = 7.21


Answer with the recorded pKd of hIL-22-anti-HSA A1 (other, Single-chain fusion of IL-22 and an anti-HSA VHH, expressed in ExpiCHO cells; also called fusion protein A1) APISSHCRLDKSNFQQPYITNRTFMLAKEASLADNNTDVRLIGEKLFHGVSMSERCYLMKQVLNFTLEEVLFPQSDRFQPYMQEVVPFLARLSNRLSTCHIEGDDLHIQRNVQKLKDTVKKLGESGEIKAIGELDLLFMSLRNACISGGGGSGGGGSGGGGSEVQLVESGGGLVQPGGSLRLSCAASGSTWSINTLAWYRQAPGKQRDLVARISSGGSTYYADSVKGRFTISRDNSKNTLYLQMNSLRAEDTAVYYCYAQSTWYPPSWGQGTLVTVSS only. 6.52

Answer with the recorded pKd of mIL-22-hIgG1 Fc B1 (Fc fusion) LPVNTRCKLEVSNFQQPYIVNRTFMLAKEASLADNNTDVRLIGEKLFRGVSAKDQCYLMKQVLNFTLEDVLLPQSDRFQPYMQEVVPFLTKLSNQLSSCHISGDDQNIQKNVRRLKETVKKLGESGEIKAIGELDLLFMSLRNACVARGPTIKPCPPCKCPAPNLLGGPSVFIFPPKIKDVLMISLSPIVTCVVVDVSEDDPDVQISWFVNNVEVHTAQTQTHREDYNSTLRVVSALPIQHQDWMSGKEFKCKVNNKDLPAPIERTISKPKGSVRAPQVYVLPPPEEEMTKKQVTLTCMVTDFMPEDIYVEWTNNGKTELNYKNTEPVLDSDGSYFMYSKLRVEKKNWVERNSYSCSVVHEGLHNHHTTKSFSRTPGK only. 8.85

Hello, the source for this data is patent US20220033454A1, in case you need it.
